- Tested on: UACC-257 melanoma
- measurement description: NCI tumour cell line growth inhibition, 48 h
parameter: TGI

Lookup: Supply recorded TGI for "COc1ccc(-c2cc3cccc(OC)c3c(=O)o2)cc1OC" here.
Found: > 100 µM

Lookup: Look up TGI of COc1cc2c(cc1OC)C1c3ccccc3C(C#N)(C2)N(C(=O)c2ccccc2)C1O (stereo not given) and report it.
Found: > 100 µM

Lookup: Identify measured TGI associated with "C=C1C(=O)O[C@H]2[C@H]1CC/C(COC(=O)OCCCCCOC(=O)OC/C1=C/CC[C@@]3(C)O[C@H]3[C@H]3OC(=O)C(=C)[C@@H]3CC1)=C\CC[C@@]1(C)O[C@@H]21"
Found: 2.31 µM

Lookup: Give the value of TGI reported for the following: "O=C(O)CSc1n[nH]c(/C=C/c2ccccc2)n1"
Found: > 100 µM

Lookup: Entry "N#C/C(=C\c1ccc(CP(=O)(O)O)cc1)C(N)=O" needs its TGI filled in; supply it.
Found: > 100 µM

Lookup: // Input: COCCNCC(O)Cn1c2ccc(Cl)cc2c2cc(Cl)ccc21 (stereo not given) . Output its TGI only.
Found: 3.35 µM

Lookup: Answer with reported TGI of "COc1ccc(-c2nc(-c3nc4ccc(F)cc4[nH]3)cc3c2[nH]c2ccccc23)cc1"
Found: 4.8 µM

Lookup: Specify TGI for "Oc1ccc(-c2cc(-c3c(O)cc(O)cc3O)on2)cc1" and stop.
Found: > 100 µM

Lookup: # return recorded TGI for entry "CSc1nc2c(c(N(C)C)n1)C=Nn1c(nc3ccccc31)S2"
Found: > 100 µM

Lookup: Answer with the recorded TGI of "NC1=CN(CCCO)C2=N/C(=C\c3ccco3)C(=O)N12" only.
Found: > 100 µM

Lookup: Please report TGI for the following compound: "C[N+]1(C)C2Cc3ccccc3C1Cc1ccccc12"
Found: > 100 µM

Lookup: Fill in reported TGI for this entry: "O=C(CC12CC3CC(CC(C3)C1)C2)NCCOCCOCCNC(=O)c1cc2c(o1)C(=O)c1ccccc1C2=O"
Found: 2.43 µM

Lookup: Give me measured TGI, please, for this compound: O=c1cnn(C2OC(CO)C(O)C(F)C2O)c(=O)[nH]1 (stereo not given)
Found: > 100 µM

Lookup: For "CCOC(=O)NNC(=O)NCCNC(=O)NNC(=O)OCC" , write its TGI.
Found: > 100 µM

Lookup: Query TGI for "CN(NC(=O)c1ccco1)C1=NCCCCN1"
Found: > 100 µM
